The entries below come with measured protein stability index values attached.
Assay: protein stability index of a GFP-peptide fusion (yeast GPS) (PSI 1-4); higher = more stable; sorted into four equal gates, so the index is relative within each strain
Conditions: pdr5∆

constructSequence: LKPSMSVALHRHSNALV [RPT3]
protein stability index: 2.41
//
constructSequence: DLTGSEPIKEIIDNWEK [FAS1]
protein stability index: 2.79
//
constructSequence: KLCYVLGVEDITLIDSA [RET1]
protein stability index: 1.73
//
constructSequence: YVMERPKNVPTSKWLNS [YDL116W/NUP84]
protein stability index: 2.75
//
constructSequence: KTSCVVEKRIGKIVSQR [RGR1]
protein stability index: 2.77
//
constructSequence: NCKKKKKRKKKNKSAID [RMP1]
protein stability index: 2.67
//
constructSequence: KAFKICEAAVEISKKDF [SIR3]
protein stability index: 2.88
//
constructSequence: FIYGEDGMDAAHIEKQS [RPO21]
protein stability index: 3.29
//
constructSequence: VKTPKKTKYILQRPTAT [CSN12]
protein stability index: 3.03
//
constructSequence: PNRIKLSKEVPFSYLID [SRB5]
protein stability index: 2.15
//
constructSequence: LKNTMQYLTNFSRFRDQ [RPB4]
protein stability index: 2.97
//
constructSequence: FDALRSLDDNSTSLEKQ [YJL041W/NSP1]
protein stability index: 3.03
//
constructSequence: MALKKNTHNKSTKRVTK [POP7]
protein stability index: 2.73
//
constructSequence: VTLRKSLYTNTSRKALE [RPL3]
protein stability index: 2.26

====

Test: protein stability index of a GFP-peptide fusion (yeast GPS) (PSI 1-4); higher = more stable; sorted into four equal gates, so the index is relative within each strain
Details: ubr1∆

constructSequence: SENRFPGWDFETEEIDP [RPL5]
protein stability index: 2.5

constructSequence: NYEDVGRFLRVPKEGLF [BRR2]
protein stability index: 3.49

constructSequence: FNTNSSFTPSTVPNINF [YOR098C/NUP1]
protein stability index: 2.77

constructSequence: LNITTVFSHAQTAVTCE [RPS27A]
protein stability index: 2.09

constructSequence: SVQDLGGSATARHKKKV [YML031W/NDC1]
protein stability index: 2.05

constructSequence: QLTEFWTELCQREFKEI [NNF1]
protein stability index: 3.09

constructSequence: FELSFTGAPPYYYNTKI [YMR129W/POM152]
protein stability index: 3.21

constructSequence: TDAMTESQPKQTGTRRN [MCD1]
protein stability index: 3.09

constructSequence: RHFWGLRVRGQHTKTTG [RPS18A]
protein stability index: 2.16

constructSequence: HIQGFPTLGERLDNLQD [DSN1]
protein stability index: 3.05

constructSequence: KVVNFWLLHNGFSTGIG [RPO21]
protein stability index: 1.37

constructSequence: SDTSKPAFTFGAQKDNE [YJL041W/NSP1]
protein stability index: 3.48

constructSequence: NYEIVFDTVSNKLFTEP [YMR129W/POM152]
protein stability index: 3.03

constructSequence: AAQIFGSYNAFEPASRL [COR1]
protein stability index: 1.51

====

Assay: protein stability index of a GFP-peptide fusion (yeast GPS) (PSI 1-4); higher = more stable; sorted into four equal gates, so the index is relative within each strain
Conditions: san1∆
The following ranges of protein stability index define the classes used here: 1 (below 2), 2 (2 to below 3), 3 (3 or more)

constructSequence: VCFNNLVDENTDYLYRR [YCS4]
labelClass: 2
--
constructSequence: SSVYRLKFAVQVDKVTK [RPL26A]
labelClass: 2
--
constructSequence: LDKHERKWMEEKADYER [YIL149C/MLP2]
labelClass: 2
--
constructSequence: AAQIFGSYNAFEPASRL [COR1]
labelClass: 1
--
constructSequence: DFLRYINIKYLRLDGHT [SNF2]
labelClass: 1
--
constructSequence: DSKKIKVDSPDDPFMTK [GAL11]
labelClass: 2
--
constructSequence: NILALNLVSLLIIVTRK [YML031W/NDC1]
labelClass: 1
--
constructSequence: LNDTTEKSKALESEIAS [SMC2]
labelClass: 3
--
constructSequence: RENMICKIDFQKNFMDQ [RRI2]
labelClass: 3
--
constructSequence: HYVVLDTNVVLQAIDLL [DIS3]
labelClass: 2
--
constructSequence: IRKFFGLSKEDDVRDFV [RPS6A]
labelClass: 3
--
constructSequence: KEKLTVQDCRYSLASVT [POP1]
labelClass: 2
